system: RXF 393; assay: NCI tumour cell line growth inhibition, 48 h
Active and inactive are the calls of the source. Rule as the data show it: active = GI50 up to about 1.1 µM and inactive = higher.
Property Measured: GI50

Notebook: c1cncc(O[Si](Oc2cccnc2)(Oc2cccnc2)Oc2cccnc2)c1 , GI50 read as > 100 µM (inactive)

Notebook: O=C1C(c2c(O)[nH]c3ccc(Br)cc23)=Nc2ccc(Br)cc21 , GI50 read as 16.6 µM (inactive)

Notebook: CC(C)(C)OC(=O)N1C(OP(=O)(Oc2ccccc2)Oc2ccccc2)=COc2cccnc21 , GI50 read as 91.8 µM (inactive)

Notebook: CC(C(=O)NCNC(=O)c1ccccc1)C(=O)Nc1ccccc1 (stereo not given) , GI50 read as > 100 µM (inactive)

Notebook: COc1ccccc1/C=C(\C#N)c1ccccc1 , GI50 read as 27.7 µM (inactive)

----------
tested on: M14; assay: NCI tumour cell line growth inhibition, 48 h
Active and inactive are the calls of the source. No stated cut-off is given here; in the data, active = GI50 up to about 1.1 µM and inactive = higher. Square brackets hold non-standard residues; d marks the D form. Peptide text beside a SMILES is read from it. * marks the point of attachment. Bn2Val = CC(C)[C@@H](C(=O)*)N(Cc1ccccc1)Cc1ccccc1; NH(3,4-diMeO-benzyl) = COc1ccc(CN*)cc1OC; NMeV = CN[C@H](C(=O)O)C(C)C; dNMeA = CN[C@H](C)C(=O)O
Field: GI50. Provide a value for each of the compounds that follow.

Notebook: COc1ccc(CNC(=O)[C@@H](C)N(C)C(=O)[C@@H]2CCCN2C(=O)[C@H](C(C)C)N(C)C(=O)[C@@H](NC(=O)[C@H](C(C)C)N(Cc2ccccc2)Cc2ccccc2)C(C)C)cc1OC (Bn2Val-V[NMeV]P[dNMeA]-{NH(3,4-diMeO-benzyl)}) , GI50 read as 6.92 µM (inactive)

Notebook: O=C(N1CCN(c2ccccc2)CC1)N(C(=O)C1(c2ccc(Cl)cc2)CCCC1)S(=O)(=O)c1ccccc1 , GI50 read as 21.1 µM (inactive)

Notebook: COc1ccc(OC)c(NCC(=O)Nn2cnc3ccc(S(=O)(=O)Nc4cc(OC)ccc4OC)cc3c2=O)c1 , GI50 read as > 100 µM (inactive)

----------
Field: GI50. Provide a value for each of the compounds that follow.
system: SR; test: NCI tumour cell line growth inhibition, 48 h
Calls of active or inactive are those of the source. No stated cut-off is given here; in the data, active = GI50 up to about 1.1 µM and inactive = higher.

Notebook: COc1ccc(C(=O)CC(c2ccccc2)[C@H]2C(c3ccc(OC)cc3)=Nc3c(nc(SC)n(C)c3=O)NC2c2ccccc2)cc1 (stereo partly specified) , GI50 read as > 100 µM (inactive)

Notebook: COc1ccc(/C=C2\CCc3cc(OC)c(OC)cc3C2=O)cc1 , GI50 read as > 10 µM (inactive)

Notebook: COc1cc(=O)oc(/C=C/C=C/C=C/C(C)=C\C2(C)OC(C)C(C)(O)C2O)c1C (stereo unspecified) , GI50 read as > 100 µM (inactive)

Notebook: C[n+]1c2ccccc2c2/c(=C\C#N)c3ccccc3n21 , GI50 read as 3.91 µM (inactive)

Notebook: COC(=O)/C=C\C(C#N)(C#N)/N=C/c1ccc(Br)cc1 , GI50 read as 5.42 µM (inactive)

Notebook: COC(=O)[C@H](CNC(=O)/C=C/c1ccc(OC(C)=O)c(OC(C)=O)c1)NC(=O)/C=C/c1ccc(OC(C)=O)c(OC(C)=O)c1 , GI50 read as > 100 µM (inactive)

Notebook: CCOC12SC(Nc3ccc(C)cc3)=NN1C(=S)N(C)N=C2C (stereo unspecified) , GI50 read as > 100 µM (inactive)

Notebook: Cc1cc(C)c(-c2no/c(=N\S(=O)(=O)c3ccc(Cl)cc3)o2)c(C)c1 , GI50 read as 24.7 µM (inactive)

Notebook: CC(C)C(C)/C=C\C(C)C1CCC2C3=CC=C4CC(O)CCC4(C)C3CCC21C (stereo unspecified) , GI50 read as 34.4 µM (inactive)

Notebook: CC(O)[C@@]1(c2ccccc2)CC2(CCN(C)CC2)O[C@H]1C (stereo partly specified) , GI50 read as > 100 µM (inactive)

Notebook: CC(=O)OCC1OC(n2c3c(c(-c4ccco4)c(C#N)c2=S)CCCC3)C(OC(C)=O)C(OC(C)=O)C1OC(C)=O (stereo unspecified) , GI50 read as > 31.6 µM (inactive)

Notebook: O=[N+]([O-])c1ccc2nc(/C(=N/Nc3ccccc3)C(O)c3ccc(Cl)cc3Cl)c(O)nc2c1 (stereo unspecified) , GI50 read as 29.6 µM (inactive)

Notebook: CN(C)CCCCC1CCN(CC(=O)N2c3ccccc3NC(=O)c3ccccc32)CC1 , GI50 read as > 100 µM (inactive)

Notebook: Cn1ccnc1Cn1cc(-c2cccc(-c3cn[nH]c3)c2)cn1 , GI50 read as 80 µM (inactive)

Notebook: Cc1ccc(S(=O)(=O)SC(C)(C)C)cc1 , GI50 read as 12.2 µM (inactive)

Notebook: COc1ccccc1/C=C(\C#N)c1ccccc1 , GI50 read as 15.6 µM (inactive)

----------
Field: GI50. Provide a value for each of the compounds that follow.

Tested system HCT-15; GI50 recorded for Cc1cc2c(c3nocc13)C(=O)c1ccccc1C2=O was > 100 µM

Tested system HCT-15; GI50 recorded for Cc1ncc([N+](=O)[O-])n1CCNC(=O)CCCn1cnc([N+](=O)[O-])n1 was > 76.6 µM

Tested system HCT-15; GI50 recorded for C=CC[C@@]12CCC(=O)C=C1CCCC2=O was > 100 µM

Tested system HCT-15; GI50 recorded for O=C(O)Cn1ncn(NC(=O)Cc2ccccc2)c1=S was > 10 µM

----------
Field: GI50. Provide a value for each of the compounds that follow.
system: KM12; test: NCI tumour cell line growth inhibition, 48 h
Activity calls are given as the source filed them. Cut-off read from the data, not from the text of the source: active = GI50 up to about 1.1 µM and inactive = higher.

Tested system KM12; GI50 recorded for CN(C)CCC(/C=C/c1ccccc1)=N\Nc1ccc(Cl)cc1 was 2.84 µM (inactive)

Tested system KM12; GI50 recorded for CCCCCCCCCCCCCCCCCCOc1ccc(/C=C/C2=[N+](CCCl)CCO2)cc1 was > 100 µM (inactive)

Tested system KM12; GI50 recorded for O=C1C(c2c(O)[nH]c3ccc(Br)cc23)=Nc2ccc(Br)cc21 was 44.2 µM (inactive)

Tested system KM12; GI50 recorded for N#Cc1c2ccccc2cn1-c1ccc(F)cc1 was 21.8 µM (inactive)

Tested system KM12; GI50 recorded for COc1ccc2oc3c(C)cc4c(OC)nnc(OC)c4c3c2c1 was 27.4 µM (inactive)

Tested system KM12; GI50 recorded for C=C(C)[C@@H]1CC[C@]2(CO)CC[C@]3(C)[C@H](CC[C@@H]4[C@@]5(C)CC[C@H](O)C(C)(C)[C@@H]5CC[C@]43C)[C@@H]12 [BETULIN] was 9.71 µM (inactive)

Tested system KM12; GI50 recorded for CC(O)[C@@]1(c2ccccc2)CC2(CCN(C)CC2)O[C@H]1C (some centres undefined) was > 100 µM (inactive)

Tested system KM12; GI50 recorded for C=C1C(C)C2C(Cc3ccccc3)NC(=O)C23C(OC(C)=O)/C=C/C(C)(O)CC(C)C/C=C/C3C1O (centres undefined) was 97.3 µM (inactive)

Tested system KM12; GI50 recorded for CSc1nc(SC)c2c(C(N)=S)n[nH]c2n1 was 37.4 µM (inactive)

Tested system KM12; GI50 recorded for C/C=C(\CCOS(=O)(=O)c1ccc(C)cc1)[Si](C)(C)C was > 100 µM (inactive)

Tested system KM12; GI50 recorded for COC(=O)C1C=CCON2CCc3c(n(C)c4ccccc34)C12 (centres undefined) was > 100 µM (inactive)

Tested system KM12; GI50 recorded for CC1(C)c2ccccc2C(O)C12CCC(=O)CC2 (centres undefined) was > 100 µM (inactive)

Tested system KM12; GI50 recorded for CSc1ncnc2c1ncn2CCC(=O)OC(C)(C)C was > 100 µM (inactive)

Tested system KM12; GI50 recorded for COC(=O)/N=[N+](\[O-])C(c1ccc(OC)cc1)C1CCCCC1 (centres undefined) was 2.39 µM (inactive)

----------
system: 786-0; experiment: NCI tumour cell line growth inhibition, 48 h
Activity calls are given as the source filed them. Rule as the data show it: active = GI50 up to about 1.1 µM and inactive = higher.
Allowed answers: active, inactive

Each compound tested received a call. Report the one for Cc1ccc2[nH]c(=N/c3ccccc3C)/c(=N\c3ccccc3C)[nH]c2c1 .
inactive

Each compound tested received a call. Report the one for COC(=O)CCN1CCN(CCO)CC1C (configuration not stated) .
inactive

Each compound tested received a call. Report the one for CC[C@@H]1/C=C/C=C/C[C@H](C)[C@@H](O)[C@](C)(O)C(=O)[C@H](C)[C@@H](O)[C@H](C)C(=O)[C@H](C)[C@@H](O)[C@H](C)/C=C/C(=O)O[C@H]2[C@@H](C)[C@@H](CC1)O[C@@]1(CC[C@@H](C)[C@@H](CC(C)O)O1)[C@@H]2C (some centres not stated) .
inactive

Each compound tested received a call. Report the one for CC1CSc2nc3nc(S)nc-3c(O)n2C1 (configuration not stated) .
inactive

Each compound tested received a call. Report the one for COc1ccc(C2CC(=O)Oc3ccccc3O2)cc1 (configuration not stated) .
inactive

Each compound tested received a call. Report the one for C=CC1(c2ccc(-c3ccccc3)cc2)OCCO1 .
inactive

Each compound tested received a call. Report the one for CCCCCCCCCCCCCC(=O)OC(/C=C/C(C)C)C(O)C(O)C(OC)C(=O)NC1CCCCNC1=O (configuration not stated) .
active
